Tested on: acetic acid induced writhing
Test Method Notes: Acetic acid induced Writhing Test (IWRAC)
Format: in vivo
Condition Label: 6 mg/kg p.o., mouse
Endpoint Name: Analgesic effect in test model IWRAC (%)

{"Molecule": "CCOC(=O)CCN1CCC(n2nc(Cc3ccc(Cl)cc3)c3ccccc3c2=O)CC1", "Endpoint Name": "Analgesic effect in test model IWRAC", "Observed": 67}
{"Molecule": "O=c1c2ccccc2c(Cc2ccc(F)cc2)nn1C1CCN(CCCc2ccccc2)CC1", "Endpoint Name": "Analgesic effect in test model IWRAC", "Observed": 77}
{"Molecule": "O=c1c2ccccc2c(Cc2ccc(F)cc2)nn1C1CCN(CCCc2ccc(F)cc2)CC1", "Endpoint Name": "Analgesic effect in test model IWRAC", "Observed": 67}
{"Molecule": "O=c1c2ccccc2c(Cc2ccc(F)cc2)nn1C1CCCN(Cc2ccccc2)CC1 (centres unmarked)", "Endpoint Name": "Analgesic effect in test model IWRAC", "Observed": 75}
{"Molecule": "O=c1c2ccccc2c(Cc2ccc(Cl)cc2)nn1C1CCCN(CCc2ccccc2)CC1 (centres unmarked)", "Endpoint Name": "Analgesic effect in test model IWRAC", "Observed": 91}
